Assay: Acute toxicity test
Format: in vivo
Settings: female, rat, in vivo
PARAMETER_MEASURED: LD50 at 15 days (mg/kg)

> print(dat)
                                   compound  number
1  Cc1occc(=O)c1O [maltol, reference compound]    1590
